Structures can show the parent of a compound that is named as a salt.
Exercise: for every item that follows, state its recorded melting point.

Look up melting point for this molecule: COc1ccc(C2=NN(c3ccc(C(=O)N4CCN(CCN(C)C)CC4)cc3)C(=O)C3CC=CCC23)c2c1OC(C)(C)C2 (stereo not drawn) (as salt: hydrochloride) [Compound 14, dihydrochloride]
245 °C (dec.)

Look up melting point for this molecule: "CCOc1ccc(C2=NN(c3ccc(C(=O)N4CCN(c5cccc6[nH]ccc56)CC4)cc3)C(=O)[C@@H]3CC=CC[C@H]23)cc1OCC.Cl"
142 to 145 °C

Look up melting point for this molecule: CCOc1ccc(C2=NN(c3ccc(C(=O)N4CCN(c5ccc([N+](=O)[O-])cn5)CC4)cc3)C(=O)C3CC=CCC23)cc1OCC (stereo not drawn) (as salt: hydrochloride)
117 to 118 °C

Look up melting point for this molecule: "COc1ccc(C2=NN(c3ccc(C(=O)N4CCN(c5c(Cl)cncc5Cl)CC4)cc3)C(=O)[C@@H]3CC=CC[C@H]23)cc1OC"
137 to 139 °C

Look up melting point for this molecule: "CCOc1ccc(C2=NN(c3ccc(C(=O)N4CCN(CCCN5CCOCC5)CC4)cc3)C(=O)[C@@H]3CC=CC[C@H]23)cc1OCC.Cl.Cl"
170 to 171 °C

Look up melting point for this molecule: COc1ccc(C2=NN(Cc3ccc(C(=O)N4CCN(CCCN(C)C)CC4)cc3)C(=O)[C@H]3CC=CC[C@@H]23)c2c1OC(C)(C)C2.Cl.Cl (relative stereo)
247 to 249 °C

Look up melting point for this molecule: "CCOc1ccc(C2=NN(c3ccc(C(=O)N4CCN(c5ccccn5)CC4)cc3)C(=O)[C@@H]3CC=CC[C@H]23)cc1OCC"
183 to 184 °C

Look up melting point for this molecule: "COc1ccc(C2=NN(c3ccc(C(=O)N4CCN(CC(=O)N5CCCC5)CC4)cc3)C(=O)[C@@H]3CC=CC[C@H]23)cc1OC.Cl"
160 to 161 °C

Look up melting point for this molecule: "CCOc1ccc(C2=NN(c3ccc(C(=O)N4CCN(c5nc(-c6ccccc6)ns5)CC4)cc3)C(=O)[C@@H]3CC=CC[C@H]23)cc1OCC"
168 to 169 °C

Look up melting point for this molecule: "CCOc1ccc(C2=NN(c3ccc(C(=O)N4CCN(c5ccncc5)CC4)cc3)C(=O)[C@@H]3CC=CC[C@H]23)cc1OCC.Cl"
164 to 167 °C

Look up melting point for this molecule: "COc1ccc(C2=NN(c3ccc(C(=O)N4CCN(c5nc(-c6ccccc6C)ns5)CC4)cc3)C(=O)[C@@H]3CC=CC[C@H]23)cc1OC.Cl"
115 to 118 °C

Look up melting point for this molecule: "CCOc1ccc(C2=NN(c3ccc(C(=O)N4CCN(c5cc(C)nc6ccccc56)CC4)cc3)C(=O)[C@@H]3CC=CC[C@H]23)cc1OCC.Cl"
203 to 206 °C (dec.)

----------
Exercise: for every item that follows, state its recorded melting point.

Look up melting point for this compound: COc1ccc(C2=NN(Cc3ccc(C(=O)N4CCN(c5cnccn5)CC4)cc3)C(=O)[C@H]3CC=CC[C@@H]23)c2c1OC(C)(C)C2.Cl.Cl (relative stereo)
124 to 126 °C

Look up melting point for this compound: "CCOc1ccc(C2=NN(c3ccc(C(=O)N4CCN(C5CCN(C)CC5)CC4)cc3)C(=O)[C@@H]3CC=CC[C@H]23)cc1OCC.Cl.Cl"
275 °C (dec.)

Look up melting point for this compound: "COc1ccc(C2=NN(c3ccc(C(=O)N4CCN(CCCN(C)C)CC4)cc3)C(=O)[C@@H]3CC=CC[C@H]23)cc1OC.Cl.Cl"
223 to 226 °C

Look up melting point for this compound: "CCOc1ccc(C2=NN(c3ccc(C(=O)N4CCN(C=O)CC4)cc3)C(=O)[C@@H]3CC=CC[C@H]23)cc1OCC"
143 to 144 °C

Look up melting point for this compound: "COc1ccc(C2=NN(c3ccc(C(=O)N4CCN(CC(=O)N(C)C)CC4)cc3)C(=O)[C@@H]3CC=CC[C@H]23)cc1OC.Cl"
93 to 94 °C

Look up melting point for this compound: "CCOc1ccc(C2=NN(c3ccc(C(=O)N4CCN(CCN5CCOCC5)CC4)cc3)C(=O)[C@@H]3CC=CC[C@H]23)cc1OCC.Cl.Cl"
255 °C (dec.)

----------
Exercise: for every item that follows, state its recorded melting point.

Look up melting point for this compound: COc1ccc(C2=NN(Cc3ccc(C(=O)N4CCN(CCN5CCOCC5)CC4)cc3)C(=O)[C@H]3CC=CC[C@@H]23)c2c1OC(C)(C)C2.Cl.Cl (relative stereo)
210 to 211 °C

Look up melting point for this compound: COc1ccc(C2=NN(c3ccc(C(=O)N4CCN(C(=O)c5ccco5)CC4)cc3)C(=O)C3CC=CCC23)c2c1OC(C)(C)C2 (centres unmarked) [Compound 9]
138 to 140 °C

Look up melting point for this compound: CCOc1ccc(C2=NN(c3ccc(S(=O)(=O)N4CCN(c5ccccn5)CC4)cc3)C(=O)[C@H]3CC=CC[C@@H]23)cc1OCC (relative stereo) [Compound 6]
181 to 182 °C

Look up melting point for this compound: "CCOc1ccc(C2=NN(c3ccc(C(=O)N4CCN(c5ccccc5)CC4)cc3)C(=O)[C@@H]3CC=CC[C@H]23)cc1OCC.Cl"
146 to 147 °C

Look up melting point for this compound: CCOc1ccc(C2=NN(c3ccc(C(=O)N4CCN(CC5CCCO5)CC4)cc3)C(=O)[C@@H]3CC=CC[C@H]23)cc1OCC.Cl (some centres unmarked) [Compound 23]
131 to 133 °C
